Below, each entry is listed alongside its reported binding signal.
# measured-on: OsWOX13 (Oryza sativa, UniProt Q5QMM3 1-267)
# Sequence: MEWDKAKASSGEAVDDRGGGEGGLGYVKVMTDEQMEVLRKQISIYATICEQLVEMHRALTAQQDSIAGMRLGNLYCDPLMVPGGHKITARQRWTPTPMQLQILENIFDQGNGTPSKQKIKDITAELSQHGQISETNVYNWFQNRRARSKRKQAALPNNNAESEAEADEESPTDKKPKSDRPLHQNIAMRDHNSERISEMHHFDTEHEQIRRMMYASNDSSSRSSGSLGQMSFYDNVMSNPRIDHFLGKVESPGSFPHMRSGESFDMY
# method-notes: protein-binding microarray (RPBM); PBS, 2% BSA, 51.3 ng/ul salmon testes DNA, 50 uM zinc acetate, 200 nM TF, 25 C, 1 h; high values mean tight binding
# setup-conditions: protein: recombinant; tags: N-terminal polyhistidine and DsRed monomer fusion (pET32a); label: CyDye5-dUTP incorporated in the synthesized complementary strand; 3' TTTTT single-stranded linker to array surface; dsDNA, one strand shown
Over roughly 35,000 sequences, “fluorescence intensity (a.u.)” has its median near 10,000; the highest 2% begin near 52,000. This is one part of a sample in which the highest values are shown more often than they occur.
reported-property: binding signal

>>> value_observed("ATTTTAATTTTAATTATTAATACTCCATTAGCATTTAGTTCGGAGTCACCTAGTGCAG")
"18200 fluorescence intensity (a.u.)"
>>> value_observed("GATTATAATTTGTAAGATAATTGACCATGGAGAAGATTCACGGAGTCACCTAGTGCAG")
"16300 fluorescence intensity (a.u.)"
>>> value_observed("CAGTATATAAATAATTTGAATTAGATGAGATATATCCTAGCGGAGTCACCTAGTGCAG")
"8160 fluorescence intensity (a.u.)"
>>> value_observed("GATAATTGACAAGATTGAACCATATGTGATGTATTATTTCCGGAGTCACCTAGTGCAG")
"53200 fluorescence intensity (a.u.)"
>>> value_observed("AATTATTGATTTGATGAAACTAATTTAGTATTATAAAGAGCGGAGTCACCTAGTGCAG")
"51000 fluorescence intensity (a.u.)"

###

Below, each entry is listed alongside its reported binding signal.
# measured-on: OsWOX13 (Oryza sativa, UniProt Q5QMM3 1-267)
# Sequence: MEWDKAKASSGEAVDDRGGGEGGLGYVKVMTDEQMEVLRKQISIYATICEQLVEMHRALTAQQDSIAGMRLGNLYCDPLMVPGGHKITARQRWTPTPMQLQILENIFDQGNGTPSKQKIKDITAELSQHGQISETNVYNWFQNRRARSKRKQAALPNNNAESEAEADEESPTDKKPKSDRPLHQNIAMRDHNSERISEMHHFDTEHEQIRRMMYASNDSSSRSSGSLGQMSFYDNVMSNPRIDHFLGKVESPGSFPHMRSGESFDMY
# method-notes: protein-binding microarray (RPBM); PBS, 2% BSA, 51.3 ng/ul salmon testes DNA, 50 uM zinc acetate, 200 nM TF, 25 C, 1 h; high values mean tight binding
# setup-conditions: protein: recombinant; tags: N-terminal polyhistidine and DsRed monomer fusion (pET32a); label: CyDye5-dUTP incorporated in the synthesized complementary strand; 3' TTTTT single-stranded linker to array surface; dsDNA, one strand shown
Over roughly 35,000 sequences, “fluorescence intensity (a.u.)” has its median near 10,000; the highest 2% begin near 52,000. The entries come from a sample that favours the highest values as a whole.
reported-property: binding signal

>>> value_observed("TTAGATTGGGACAGTACGTAGGAATTGGTTGATTTCCGGGCGGAGTCACCTAGTGCAG")
"16300 fluorescence intensity (a.u.)"
>>> value_observed("GTACAGTGTACTTGATTGAGTTGACAGTCATACTCTACTACGGAGTCACCTAGTGCAG")
"18500 fluorescence intensity (a.u.)"
>>> value_observed("TTTAAGATGATCAGATTTCTAATTGCAGTTCACCTTAACTCGGAGTCACCTAGTGCAG")
"7420 fluorescence intensity (a.u.)"
>>> value_observed("GATTAATCCAATTGACTTTGATGAGGATGTGCCACTATTTCGGAGTCACCTAGTGCAG")
"6820 fluorescence intensity (a.u.)"
>>> value_observed("TGGGCCTGATTAACATGTGCTGTAGAATCGTACAACTGTGCGGAGTCACCTAGTGCAG")
"7530 fluorescence intensity (a.u.)"

###

# measured-on: OsWOX13 (Oryza sativa, UniProt Q5QMM3 1-267)
# Sequence: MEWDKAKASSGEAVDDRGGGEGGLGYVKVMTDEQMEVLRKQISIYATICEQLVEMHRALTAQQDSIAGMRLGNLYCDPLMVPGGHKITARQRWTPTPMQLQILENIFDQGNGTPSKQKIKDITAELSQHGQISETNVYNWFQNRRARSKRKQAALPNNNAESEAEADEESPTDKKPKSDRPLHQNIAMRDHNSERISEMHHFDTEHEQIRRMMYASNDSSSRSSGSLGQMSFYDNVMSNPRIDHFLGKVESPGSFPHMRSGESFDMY
# method-notes: protein-binding microarray (RPBM); PBS, 2% BSA, 51.3 ng/ul salmon testes DNA, 50 uM zinc acetate, 200 nM TF, 25 C, 1 h; high values mean tight binding
# setup-conditions: protein: recombinant; tags: N-terminal polyhistidine and DsRed monomer fusion (pET32a); label: CyDye5-dUTP incorporated in the synthesized complementary strand; 3' TTTTT single-stranded linker to array surface; dsDNA, one strand shown
The full ranking holds about 35,000 sequences; the median of “fluorescence intensity (a.u.)” is about 10,000, and the highest 2% start at about 52,000. This excerpt belongs to a sample that is enriched for the highest values.
reported-property: binding signal

>>> value_observed("GTTTTAATTGTTTTACTGATTTGCAAATGAGTCTGGGATGCGGAGTCACCTAGTGCAG")
"63500 fluorescence intensity (a.u.)"
>>> value_observed("GTGTTGAATGCACTGATTTGTTCAGTGTCTGAGATTGATGCGGAGTCACCTAGTGCAG")
"13100 fluorescence intensity (a.u.)"
>>> value_observed("ATGTTGATTGGAGTCTGATAACTTGTCACTGGATGACATGCGGAGTCACCTAGTGCAG")
"61700 fluorescence intensity (a.u.)"
>>> value_observed("CCAGCTTAATTGAGCCTGATTAGCCGAATCCATAATTGTGCGGAGTCACCTAGTGCAG")
"63800 fluorescence intensity (a.u.)"
>>> value_observed("CATGGATAATTTGTTTTGGAGTGACACACTGACACTGATGCGGAGTCACCTAGTGCAG")
"9780 fluorescence intensity (a.u.)"
>>> value_observed("AGTTCAATTGCTTTGATGAGTGAGCAGAGAGATGATGCAGCGGAGTCACCTAGTGCAG")
"3420 fluorescence intensity (a.u.)"
>>> value_observed("GAATCTATTGAGCCTAATTAATCCATGATTAGCCTATGTGCGGAGTCACCTAGTGCAG")
"7730 fluorescence intensity (a.u.)"
>>> value_observed("TGAGTGATGACAGTAAGTAACTGAATCTGCTGAGTTCTGACGGAGTCACCTAGTGCAG")
"6590 fluorescence intensity (a.u.)"
>>> value_observed("TCTTTACTTAATTAATTTGATGCATGTATGCCAGGATTTGCGGAGTCACCTAGTGCAG")
"35800 fluorescence intensity (a.u.)"

###

# measured-on: OsWOX13 (Oryza sativa, UniProt Q5QMM3 1-267)
# Sequence: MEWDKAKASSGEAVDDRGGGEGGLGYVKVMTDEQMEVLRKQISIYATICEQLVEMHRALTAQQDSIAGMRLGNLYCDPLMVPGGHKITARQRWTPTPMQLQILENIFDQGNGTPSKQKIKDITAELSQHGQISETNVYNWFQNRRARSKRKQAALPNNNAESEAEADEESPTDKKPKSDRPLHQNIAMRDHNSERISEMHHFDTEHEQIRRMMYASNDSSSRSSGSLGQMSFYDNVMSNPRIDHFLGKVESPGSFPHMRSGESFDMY
# method-notes: protein-binding microarray (RPBM); PBS, 2% BSA, 51.3 ng/ul salmon testes DNA, 50 uM zinc acetate, 200 nM TF, 25 C, 1 h; high values mean tight binding
# setup-conditions: protein: recombinant; tags: N-terminal polyhistidine and DsRed monomer fusion (pET32a); label: CyDye5-dUTP incorporated in the synthesized complementary strand; 3' TTTTT single-stranded linker to array surface; dsDNA, one strand shown
Whole data set: some 35,000 sequences, median “fluorescence intensity (a.u.)” near 10,000, cut for the highest 2% near 52,000. The entries come from a sample that favours the highest values as a whole.
Below, each entry is listed alongside its reported binding signal.
reported-property: binding signal

>>> value_observed("TTTAATTACTAATCAATTTCATACATTCATATAGTTTATTCGGAGTCACCTAGTGCAG")
"55600 fluorescence intensity (a.u.)"
>>> value_observed("CGATTTCTTGTTTAATTACTAATCAATTTCATACATTCATCGGAGTCACCTAGTGCAG")
"13400 fluorescence intensity (a.u.)"
>>> value_observed("ACTCAGTATACACTAATTAGCAATTATTACCGAAATTGTACGGAGTCACCTAGTGCAG")
"23400 fluorescence intensity (a.u.)"
>>> value_observed("AAATCAATAATTAAATATAGTTTCATAATATATTTATCTTCGGAGTCACCTAGTGCAG")
"22700 fluorescence intensity (a.u.)"
>>> value_observed("TGGTATTTAATTATTTGTTAGAGTCATCATTGGTCTATAACGGAGTCACCTAGTGCAG")
"8940 fluorescence intensity (a.u.)"
